target: Protein kinase C beta type (Homo sapiens)
Sequence (P05771 whole entry): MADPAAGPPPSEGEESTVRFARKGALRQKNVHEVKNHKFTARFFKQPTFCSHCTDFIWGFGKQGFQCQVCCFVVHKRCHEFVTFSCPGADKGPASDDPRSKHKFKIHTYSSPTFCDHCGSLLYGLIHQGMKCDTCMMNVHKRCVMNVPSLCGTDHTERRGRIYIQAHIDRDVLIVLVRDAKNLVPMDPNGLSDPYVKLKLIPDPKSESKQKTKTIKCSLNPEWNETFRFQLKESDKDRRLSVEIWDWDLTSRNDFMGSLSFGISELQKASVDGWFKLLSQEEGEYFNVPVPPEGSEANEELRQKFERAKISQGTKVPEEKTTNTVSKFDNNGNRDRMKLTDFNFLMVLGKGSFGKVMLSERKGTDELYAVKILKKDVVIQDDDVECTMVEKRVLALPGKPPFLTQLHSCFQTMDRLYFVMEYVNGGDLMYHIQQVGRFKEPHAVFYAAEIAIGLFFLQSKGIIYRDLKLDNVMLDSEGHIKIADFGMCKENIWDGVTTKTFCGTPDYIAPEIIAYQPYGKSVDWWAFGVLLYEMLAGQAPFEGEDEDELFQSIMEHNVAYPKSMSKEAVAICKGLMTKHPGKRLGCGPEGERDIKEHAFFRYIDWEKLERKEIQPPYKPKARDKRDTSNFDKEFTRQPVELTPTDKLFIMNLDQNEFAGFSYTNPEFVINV
Quick list: IC50 per entry.

structure-smiles-string: CC(=O)N1CCC(Nc2ncc3c(n2)-c2c(c(C(N)=O)nn2C)CC3)CC1
target-desc: Protein kinase C beta type (Homo sapiens)
IC50: > 10 µM

Return reported IC50 for target or system Protein kinase C beta type (Homo sapiens), item Cn1nc(C(N)=O)c2c1-c1nc(NC3CCN(C(=O)c4ccccc4)CC3)ncc1CC2 .
> 10 µM

====

// Serine/threonine-protein kinase pim-1 (Homo sapiens) IC50 records

structure-smiles-string: Cn1nc(C(N)=O)c2c1-c1nc(NC3CCN(C(=O)c4ccccc4)CC3)ncc1CC2
IC50: > 10 µM

Now consider the entry below.
Return reported IC50 for target or system Serine/threonine-protein kinase pim-1 (Homo sapiens), item CC(=O)N1CCC(Nc2ncc3c(n2)-c2c(c(C(N)=O)nn2C)CC3)CC1 .
> 10 µM

====

// Tyrosine-protein kinase ZAP-70 (Homo sapiens) IC50 records

structure-smiles-string: CC(=O)N1CCC(Nc2ncc3c(n2)-c2c(c(C(N)=O)nn2C)CC3)CC1
IC50: > 10 µM

Now consider the entry below.
Return reported IC50 for target or system Tyrosine-protein kinase ZAP-70 (Homo sapiens), item Cn1nc(C(N)=O)c2c1-c1nc(NC3CCN(C(=O)c4ccccc4)CC3)ncc1CC2 .
> 10 µM

====

target: Inhibitor of nuclear factor kappa-B kinase subunit beta (Homo sapiens); assay: Inhibition of IKK2
Sequence (O14920 whole entry): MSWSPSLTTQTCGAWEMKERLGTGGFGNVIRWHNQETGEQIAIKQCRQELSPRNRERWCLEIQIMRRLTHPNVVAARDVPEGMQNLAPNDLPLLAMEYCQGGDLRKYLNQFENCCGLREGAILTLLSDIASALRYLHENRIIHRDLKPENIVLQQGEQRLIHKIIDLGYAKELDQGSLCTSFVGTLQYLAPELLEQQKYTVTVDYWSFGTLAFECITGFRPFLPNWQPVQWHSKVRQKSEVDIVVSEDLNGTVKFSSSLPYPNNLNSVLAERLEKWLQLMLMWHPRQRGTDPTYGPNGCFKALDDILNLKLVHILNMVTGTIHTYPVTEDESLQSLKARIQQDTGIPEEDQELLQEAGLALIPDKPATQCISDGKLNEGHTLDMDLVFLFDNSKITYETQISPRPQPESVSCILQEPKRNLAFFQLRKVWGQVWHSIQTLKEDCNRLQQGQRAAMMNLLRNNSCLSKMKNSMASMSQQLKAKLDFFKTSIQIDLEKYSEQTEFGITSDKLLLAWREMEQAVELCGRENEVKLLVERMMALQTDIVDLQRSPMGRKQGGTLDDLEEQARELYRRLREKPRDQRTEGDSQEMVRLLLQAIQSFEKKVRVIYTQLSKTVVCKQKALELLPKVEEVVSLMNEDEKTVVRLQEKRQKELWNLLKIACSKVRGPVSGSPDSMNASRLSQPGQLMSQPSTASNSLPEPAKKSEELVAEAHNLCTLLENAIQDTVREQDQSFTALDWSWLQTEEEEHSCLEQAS
pIC50: −log10 of the molar value.
Quick list: pIC50 per entry.

structure-smiles-string: Cn1nc(C(N)=O)c2c1-c1nc(NC3CCN(C(=O)c4ccccc4)CC3)ncc1CC2
measurement-type: pIC50
result: < 5.00

Indicate the recorded pIC50 value for this compound: CC(=O)N1CCC(Nc2ncc3c(n2)-c2c(c(C(N)=O)nn2C)CC3)CC1
< 5.00

====

Molecular target: Receptor-type tyrosine-protein kinase FLT3 (Homo sapiens, UniProt P36888)
Sequence (P36888 whole entry): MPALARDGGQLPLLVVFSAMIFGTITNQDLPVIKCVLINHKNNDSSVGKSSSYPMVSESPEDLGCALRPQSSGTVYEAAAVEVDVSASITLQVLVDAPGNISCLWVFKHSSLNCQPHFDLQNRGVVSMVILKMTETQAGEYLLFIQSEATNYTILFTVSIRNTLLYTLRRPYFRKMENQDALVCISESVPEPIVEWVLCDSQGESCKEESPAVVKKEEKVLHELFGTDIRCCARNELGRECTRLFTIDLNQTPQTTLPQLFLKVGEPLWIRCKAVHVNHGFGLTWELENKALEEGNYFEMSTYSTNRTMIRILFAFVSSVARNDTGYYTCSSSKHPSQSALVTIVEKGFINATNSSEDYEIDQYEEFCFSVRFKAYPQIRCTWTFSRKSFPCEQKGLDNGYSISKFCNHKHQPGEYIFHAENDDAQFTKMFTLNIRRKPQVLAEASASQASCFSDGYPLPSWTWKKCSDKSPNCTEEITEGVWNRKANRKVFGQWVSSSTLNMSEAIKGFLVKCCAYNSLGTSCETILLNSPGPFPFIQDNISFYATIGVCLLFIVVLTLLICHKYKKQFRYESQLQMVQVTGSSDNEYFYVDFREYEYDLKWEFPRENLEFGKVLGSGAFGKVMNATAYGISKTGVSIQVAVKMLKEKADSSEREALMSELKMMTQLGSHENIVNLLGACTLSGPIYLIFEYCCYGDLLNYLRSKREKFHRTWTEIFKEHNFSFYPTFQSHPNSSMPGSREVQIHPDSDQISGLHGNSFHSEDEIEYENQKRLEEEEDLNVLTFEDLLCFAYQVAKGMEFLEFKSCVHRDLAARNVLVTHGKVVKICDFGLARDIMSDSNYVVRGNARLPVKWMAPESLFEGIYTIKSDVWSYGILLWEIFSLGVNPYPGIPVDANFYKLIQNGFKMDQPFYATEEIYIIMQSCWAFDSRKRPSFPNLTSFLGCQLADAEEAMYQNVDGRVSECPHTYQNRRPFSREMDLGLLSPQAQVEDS
measurement-type: IC50

structure-smiles-string: CC(=O)N1CCC(Nc2ncc3c(n2)-c2c(c(C(N)=O)nn2C)CC3)CC1
result: > 10 µM

Now consider the entry below.
Return reported IC50 for target or system Receptor-type tyrosine-protein kinase FLT3 (Homo sapiens, UniProt P36888), item Cn1nc(C(N)=O)c2c1-c1nc(NC3CCN(C(=O)c4ccccc4)CC3)ncc1CC2 .
> 10 µM

These measurements were taken from ChEMBL document CHEMBL1157561.
